# credit: patent US20170326246A1

Answer each item with its documented EC50 (antiviral activity, TZM-bl cells, luciferase).
TARGET OR TEST SYSTEM: gp120 of viral strain IIIB (HIV, strain IIIB)
MEASUREMENT PROTOCOL: cell-based or functional assay
*1 amine or outer side, *2 acyl side, *3 side chain or, on linkers, in order; H or OH if unused. [ ]: non-standard residue; d: D form. U1 = 4-cyclohexylmethoxy-L-phenylalanine, O=C([C@H](Cc1ccc(OCC2CCCCC2)cc1)N[*:1])[*:2]; Bip = N[C@@H](Cc1ccc(-c2ccccc2)cc1)C(=O)O; Tpa = thiopropionic acid
Your answer should be a plain number; it is taken to be in nM.

I'd like to know its EC50 (antiviral activity, TZM-bl cells, luciferase). The binder in question is mCD4.2-PS1 (not fully specified; N-terminal gamma-aminobutyric acid (gammaAbu) acylated with 3-thiopropionyl (from SATP); all six Tyr are sulfotyrosine (YSO3); N-terminal Tpa; D-proline at position 21; U1 (4-cyclohexylmethoxy-L-phenylalanine) at position 23; C-terminal amide; Lys5 N-epsilon carries the PEO2-maleimide linker bound to the thiol of the PS1 chain) peptide 1: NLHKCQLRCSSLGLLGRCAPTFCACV peptide 2: SYDYSYDYSYDYS
0.007

I'd like to know its EC50 (antiviral activity, TZM-bl cells, luciferase). The binder in question is mCD4.3-PS1 (not fully specified; N-terminal gamma-aminobutyric acid (gammaAbu) acylated with 3-thiopropionyl (from SATP); all six Tyr are sulfotyrosine (YSO3); N-terminal Tpa; D-proline at position 21; U1 (4-cyclohexylmethoxy-L-phenylalanine) at position 23; C-terminal amide; Lys5 N-epsilon carries the PEO2-maleimide linker bound to the thiol of the PS1 chain) peptide 1: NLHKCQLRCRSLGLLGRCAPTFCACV peptide 2: SYDYSYDYSYDYS
0.0025

I'd like to know its EC50 (antiviral activity, TZM-bl cells, luciferase). The binder in question is Tpa-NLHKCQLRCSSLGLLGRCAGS[Bip]CACV-NH2 (disulfide (positions not given here); also: three disulphide bridges, pairing not given here) [mCD4.1]
29

I'd like to know its EC50 (antiviral activity, TZM-bl cells, luciferase). The binder in question is Tpa-NLHFCQLRCKSLGLLGRCA[dP]T[U1]CACV-NH2 (disulfide (positions not given here)) [M48U1]
0.08

I'd like to know its EC50 (antiviral activity, TZM-bl cells, luciferase). The binder in question is mCD4.1-PS1 (N-terminal gamma-aminobutyric acid (gammaAbu) acylated with 3-thiopropionyl (from SATP); all six Tyr are sulfotyrosine (YSO3); N-terminal Tpa (thiopropionic acid); Bip at position 23; C-terminal …; Lys5 N-epsilon carries the PEO2-maleimide linker bound to the thiol of the PS1 chain) peptide 1: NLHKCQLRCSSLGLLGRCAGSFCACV peptide 2: SYDYSYDYSYDYS
0.013

I'd like to know its EC50 (antiviral activity, TZM-bl cells, luciferase). The binder in question is Tpa-NLHKCQLRCSSLGLLGRCA[dP]T[U1]CACV-NH2 (disulfide (positions not given here)) [mCD4.2]
0.22

I'd like to know its EC50 (antiviral activity, TZM-bl cells, luciferase). The binder in question is Tpa-NLHKCQLRCRSLGLLGRCA[dP]T[U1]CACV-NH2 (disulfide (positions not given here)) [mCD4.3]
0.16

I'd like to know its EC50 (antiviral activity, TZM-bl cells, luciferase). The binder in question is M48U1-PS1 (not fully specified; N-terminal gamma-aminobutyric acid (gammaAbu) acylated with 3-thiopropionyl (from SATP); all six Tyr are sulfotyrosine (YSO3); N-terminal Tpa; D-proline at position 21; U1 (4-cyclohexylmethoxy-L-phenylalanine) at position 23; C-terminal amide; Lys11 N-epsilon carries the PEO2-maleimide linker bound to the thiol of the PS1 chain) peptide 1: NLHFCQLRCKSLGLLGRCAPTFCACV peptide 2: SYDYSYDYSYDYS
0.02
